Source of measurements: ChEMBL document CHEMBL4152347

- test: Cmax in cynomolgus monkey at 5 mg/kg, po administered via gavage
- Assay type: ADME, organism-based, Macaca fascicularis
- Parameters: dose 5 mg/kg, route oral
- conditionParameters: in vivo
recordedMetric: Cmax

C=C(C)[C@@H]1CC[C@]2(NCCN3CCS(=O)(=O)CC3)CC[C@]3(C)[C@H](CC[C@@H]4[C@@]5(C)CC=C(c6ccc(C(=O)O)cc6)C(C)(C)[C@@H]5CC[C@]43C)[C@@H]12 0.062 µM

====

Parameter EC50: see the listing below.
- Test system: Human immunodeficiency virus 1
- test: microbe, parasite or virus in culture
- conditionParameters: Human immunodeficiency virus 1, MT2
- Description: Antiviral activity against wild type HIV1 infected in human MT2 cells after 4 to 5 days in presence of 10% FBS and 40% human serum albumin by dual luciferase reporter gene assay
recordedMetric: EC50

compound	valueObserved
C=C(C)[C@@H]1CC[C@]2(NCCNC3CCS(=O)(=O)C3)CC[C@]3(C)[C@H](CC[C@@H]4[C@@]5(C)CC=C(c6ccc(C(=O)O)cc6)C(C)(C)[C@@H]5CC[C@]43C)[C@@H]12 (stereo partly drawn)	15.9 nM
C=C(C)[C@@H]1CC[C@]2(NCCN3CCS(=O)(=O)CC3)CC[C@]3(C)[C@H](CC[C@@H]4[C@@]5(C)CC=C(c6ccc(C(=O)O)c(F)c6)C(C)(C)[C@@H]5CC[C@]43C)[C@@H]12	12.8 nM
C=C(C)[C@@H]1CC[C@]2(NCCN3CCC(S(C)(=O)=O)CC3)CC[C@]3(C)[C@H](CC[C@@H]4[C@@]5(C)CC=C(c6ccc(C(=O)O)cc6)C(C)(C)[C@@H]5CC[C@]43C)[C@@H]12	6.1 nM
